tested on: MDA-MB-435; experiment: Growth inhibition of human MDA-MB-435 cells assessed as cell growth at 10^-6 M incubated for 48 hrs by sulforhodamine B assay; type: functional; conditions: MDA-MB-435, 48 h, read-out: Activity
Quantity Kind: growth at 1 µM

compound_smiles=Clc1ccc(-c2nc(Nc3ccc(-c4nc5ccccc5[nH]4)cc3)nc(N3CCOCC3)n2)cc1 measurement=36%
compound_smiles=c1ccc2[nH]c(-c3ccc(Nc4nc(N5CCCCC5)nc(N5CCOCC5)n4)cc3)nc2c1 measurement=95%
compound_smiles=Fc1ccc(-c2nc(Nc3ccc(-c4nc5ccccc5[nH]4)cc3)nc(N3CCOCC3)n2)cc1 measurement=95%
compound_smiles=c1ccc(-c2nc(Nc3ccc(-c4nc5ccccc5[nH]4)cc3)nc(N3CCOCC3)n2)cc1 measurement=96%

* * *

experiment: Growth inhibition of human UO31 cells assessed as cell growth at 10^-5 M incubated for 48 hrs by sulforhodamine B assay; format: functional; details: UO-31, 48 h, read-out: Activity
# growth at 10 µM listing for each entry below
Quantity Kind: growth at 10 µM (%)

compound_smiles=c1ccc2[nH]c(-c3ccc(Nc4nc(N5CCCCC5)nc(N5CCOCC5)n4)cc3)nc2c1 measurement=-35
compound_smiles=c1ccc(-c2nc(Nc3ccc(-c4nc5ccccc5[nH]4)cc3)nc(N3CCOCC3)n2)cc1 measurement=-78
compound_smiles=Clc1ccc(-c2nc(Nc3ccc(-c4nc5ccccc5[nH]4)cc3)nc(N3CCOCC3)n2)cc1 measurement=-86
compound_smiles=Fc1ccc(-c2nc(Nc3ccc(-c4nc5ccccc5[nH]4)cc3)nc(N3CCOCC3)n2)cc1 measurement=-30

* * *

system: A498; assay: Growth inhibition of human A498 cells assessed as cell growth at 10^-4 M incubated for 48 hrs by sulforhodamine B assay; format: functional; conditions: A498, 48 h, read-out: Activity
Quantity Kind: growth at 100 µM

compound_smiles=c1ccc(-c2nc(Nc3ccc(-c4nc5ccccc5[nH]4)cc3)nc(N3CCOCC3)n2)cc1 quantity_kind="growth at 100 µM" measurement=-100%
compound_smiles=Clc1ccc(-c2nc(Nc3ccc(-c4nc5ccccc5[nH]4)cc3)nc(N3CCOCC3)n2)cc1 quantity_kind="growth at 100 µM" measurement=-48%
compound_smiles=c1ccc2[nH]c(-c3ccc(Nc4nc(N5CCCCC5)nc(N5CCOCC5)n4)cc3)nc2c1 quantity_kind="growth at 100 µM" measurement=-90%
compound_smiles=Fc1ccc(-c2nc(Nc3ccc(-c4nc5ccccc5[nH]4)cc3)nc(N3CCOCC3)n2)cc1 quantity_kind="growth at 100 µM" measurement=-96%

* * *

test: Growth inhibition of human RXF393 cells assessed as cell growth at 10 uM incubated for 48 hrs by sulforhodamine B assay; type: functional; conditions: RXF 393, 48 h, read-out: Activity
Quantity Kind: growth at 10 µM (%)

compound_smiles=c1ccc2[nH]c(-c3ccc(Nc4nc(N5CCCCC5)nc(N5CCOCC5)n4)cc3)nc2c1 quantity_kind="growth at 10 µM" result_units=% measurement=-56.1
compound_smiles=Fc1ccc(-c2nc(Nc3ccc(-c4nc5ccccc5[nH]4)cc3)nc(N3CCOCC3)n2)cc1 quantity_kind="growth at 10 µM" result_units=% measurement=-67.5
compound_smiles=Clc1ccc(-c2nc(Nc3ccc(-c4nc5ccccc5[nH]4)cc3)nc(N3CCOCC3)n2)cc1 quantity_kind="growth at 10 µM" result_units=% measurement=-91.1
compound_smiles=c1ccc(-c2nc(Nc3ccc(-c4nc5ccccc5[nH]4)cc3)nc(N3CCOCC3)n2)cc1 quantity_kind="growth at 10 µM" result_units=% measurement=-75.1
